reported-property: melting point

Task: Given the compound "Clc1ccc2c(c1)C(c1ccccn1)=NCc1ccccc1-2" , write its reported melting point.
Result: 153 to 155 °C

Task: Given the compound "Brc1ccc2cc(SN3CCN(c4ccncc4)CC3)ccc2c1" , write its reported melting point.
Result: 200 to 202 °C

Task: Given the compound "O=C(Nc1ccccc1O)c1ccc(OCCCCc2ccccc2)cc1" , write its reported melting point.
Result: 116 to 117 °C

Task: Given the compound "CN1C2=CC=CN(CCc3ccc(OCc4ccccc4)cc3)C2=Nc2ccccc2S1(=O)=O" , write its reported melting point.
Result: 133 to 134 °C

Task: Given the compound "CCCn1c(=O)cc(-n2nc(-c3c(-c4ccccc4)nn4ccccc34)ccc2=O)n(CC(=O)OC)c1=O" , write its reported melting point.
Result: 143 to 145 °C

Task: Given the compound COCC(=O)Nc1cccc(C2(c3ccncc3)N=C(N)N(C)C2=O)c1 (centres undefined) , write its reported melting point.
Result: 92 to 93 °C

Task: Given the compound "O=C(O)c1c(OCCF)cccc1OCCF" , write its reported melting point.
Result: 57 to 58 °C

Task: Given the compound "CC1=C(C(=O)Nc2cc(Cl)ccc2Cl)SC2=NCCN21" , write its reported melting point.
Result: 217 to 219 °C

Task: Given the compound COc1ccnc(CN2C(=O)C(NC(=O)Nc3cccc(C)c3)N=C(c3ccccc3F)c3ccccc32)c1 (centres undefined) , write its reported melting point.
Result: 195 to 200 °C
